Hey, just so you know, these numbers are from patent US10370405B2.

# assay comment: in vitro
quantity kind: viability at 4 days, 10 μM (%)
Give the value in % but do not write % after it.

Worked cases, answers included:
>>> endpoint_value("CC(C)C1=C2[C@H]3CC[C@@H]4[C@@]5(C)CC[C@H](OC(=O)[C@H]6C[C@@H](C(=O)O)C6(C)C)C(C)(C)[C@@H]5CC[C@@]4(C)[C@]3(C)CC[C@@]2(C(=O)NC(C)(C)c2ncc(-c3ccc(Cl)cc3)[nH]2)CC1=O")
48
>>> endpoint_value("CC(C)C1=C2[C@H]3CC[C@@H]4[C@@]5(C)CC[C@H](OC(=O)[C@H]6C[C@@H](C(=O)O)C6(C)C)C(C)(C)[C@@H]5CC[C@@]4(C)[C@]3(C)CC[C@@]2(C(=O)N(CCN(C)C)Cc2ccc(Cl)cc2)CC1=O")
91
>>> endpoint_value("CC(C)C1=C2[C@H]3CC[C@@H]4[C@@]5(C)CC[C@H](OC(=O)[C@H]6C[C@@H](C(=O)O)C6(C)C)C(C)(C)[C@@H]5CC[C@@]4(C)[C@]3(C)CC[C@@]2(C(=O)N2CCC[C@H]2c2ncc(-c3ccc(F)cc3)[nH]2)CC1=O")
100

Prompt line: Determine its reported viability at 4 days, 10 μM: CC(C)C1=C2[C@H]3CC[C@@H]4[C@@]5(C)CC[C@H](OC(=O)[C@H]6C[C@@H](C(=O)O)C6(C)C)C(C)(C)[C@@H]5CC[C@@]4(C)[C@]3(C)CC[C@@]2(C(=O)N2CC[C@@H](N3CCCC3)C2)CC1=O
Response line: 62

Prompt line: Determine its reported viability at 4 days, 10 μM: CC(C)C1=C2[C@H]3CC[C@@H]4[C@@]5(C)CC[C@H](OC(=O)[C@H]6C[C@@H](C(=O)O)C6(C)C)C(C)(C)[C@@H]5CC[C@@]4(C)[C@]3(C)CC[C@@]2(C(=O)NC(C)(C)CO)CC1=O
Response line: 70

Prompt line: Determine its reported viability at 4 days, 10 μM: CC(C)C1=C2[C@H]3CC[C@@H]4[C@@]5(C)CC[C@H](OC(=O)[C@H]6C[C@@H](C(=O)O)C6(C)C)C(C)(C)[C@@H]5CC[C@@]4(C)[C@]3(C)CC[C@@]2(C(=O)N2CCC[C@H]2C(C)(C)O)CC1=O
Response line: 40

Prompt line: Determine its reported viability at 4 days, 10 μM: CC(C)C1=C2[C@H]3CC[C@@H]4[C@@]5(C)CC[C@H](OC(=O)[C@H]6C[C@@H](C(=O)O)C6(C)C)C(C)(C)[C@@H]5CC[C@@]4(C)[C@]3(C)CC[C@@]2(C(=O)N2CCC[C@H]2CN2CCC(F)CC2)CC1=O
Response line: 31

Prompt line: Determine its reported viability at 4 days, 10 μM: CC(C)C1=C2[C@H]3CC[C@@H]4[C@@]5(C)CC[C@H](OC(=O)[C@H]6C[C@@H](C(=O)O)C6(C)C)C(C)(C)[C@@H]5CC[C@@]4(C)[C@]3(C)CC[C@@]2(C(=O)N2CCC[C@H]2CN2CCC(F)(F)CC2)CC1=O
Response line: 65

Prompt line: Determine its reported viability at 4 days, 10 μM: CC(C)C1=C2[C@H]3CC[C@@H]4[C@@]5(C)CC[C@H](OC(=O)[C@H]6C[C@@H](C(=O)O)C6(C)C)C(C)(C)[C@@H]5CC[C@@]4(C)[C@]3(C)CC[C@@]2(C(=O)N2CCC[C@H]2CN2CCC[C@H]2CO)CC1=O
Response line: 70

====

# Tested on: HIV-1 strain 92HT599
# assay comment: Antiviral activity: p24 estimation in MT2 cells infected with HIV-1
# Format: cell-based
# condition parameters: Human immunodeficiency virus 1; 0.01 μM; MT2 cells, HIV-1 92HT599, p24, ~96 hours
quantity kind: inhibition at 0.01 µM (%)
Give the value in % but do not write % after it.

Worked cases, answers included:
>>> endpoint_value("CC(C)C1=C2[C@H]3CC[C@@H]4[C@@]5(C)CC[C@H](OC(=O)[C@H]6C[C@@H](C(=O)O)C6(C)C)C(C)(C)[C@@H]5CC[C@@]4(C)[C@]3(C)CC[C@@]2(C(=O)N2CCC[C@H]2c2ncc(-c3ccc(F)cc3)[nH]2)CC1=O")
60
>>> endpoint_value("CC(C)C1=C2[C@H]3CC[C@@H]4[C@@]5(C)CC[C@H](OC(=O)[C@H]6C[C@@H](C(=O)O)C6(C)C)C(C)(C)[C@@H]5CC[C@@]4(C)[C@]3(C)CC[C@@]2(C(=O)NC(C)(C)c2ncc(-c3ccc(Cl)cc3)[nH]2)CC1=O")
92
>>> endpoint_value("CC(C)C1=C2[C@H]3CC[C@@H]4[C@@]5(C)CC[C@H](OC(=O)[C@H]6C[C@@H](C(=O)O)C6(C)C)C(C)(C)[C@@H]5CC[C@@]4(C)[C@]3(C)CC[C@@]2(C(=O)NC(C)(C)c2ncc(-c3ccccc3)[nH]2)CC1=O")
100

Prompt line: Determine its reported inhibition at 0.01 µM: CC(C)C1=C2[C@H]3CC[C@@H]4[C@@]5(C)CC[C@H](OC(=O)[C@H]6C[C@@H](C(=O)O)C6(C)C)C(C)(C)[C@@H]5CC[C@@]4(C)[C@]3(C)CC[C@@]2(C(=O)NC(C)(C)CN2CCCC2)CC1=O
Response line: 9

Prompt line: Determine its reported inhibition at 0.01 µM: CC(C)C1=C2[C@H]3CC[C@@H]4[C@@]5(C)CC[C@H](OC(=O)[C@H]6C[C@@H](C(=O)O)C6(C)C)C(C)(C)[C@@H]5CC[C@@]4(C)[C@]3(C)CC[C@@]2(C(=O)N2CCC[C@H]2c2ncc(-c3cccnc3)[nH]2)CC1=O
Response line: 100

Prompt line: Determine its reported inhibition at 0.01 µM: CC(C)C1=C2[C@H]3CC[C@@H]4[C@@]5(C)CC[C@H](OC(=O)[C@H]6C[C@@H](C(=O)O)C6(C)C)C(C)(C)[C@@H]5CC[C@@]4(C)[C@]3(C)CC[C@@]2(C(=O)N2CCC[C@H]2CN2CCC[C@H]2CO)CC1=O
Response line: 100

Prompt line: Determine its reported inhibition at 0.01 µM: CC(C)C1=C2[C@H]3CC[C@@H]4[C@@]5(C)CC[C@H](OC(=O)[C@H]6C[C@@H](C(=O)O)C6(C)C)C(C)(C)[C@@H]5CC[C@@]4(C)[C@]3(C)CC[C@@]2(C(=O)N2CCCC2c2ncc(-c3ccccc3)[nH]2)CC1=O (stereo partly drawn)
Response line: 100

Prompt line: Determine its reported inhibition at 0.01 µM: CC(C)C1=C2[C@H]3CC[C@@H]4[C@@]5(C)CC[C@H](OC(=O)[C@H]6C[C@@H](C(=O)O)C6(C)C)C(C)(C)[C@@H]5CC[C@@]4(C)[C@]3(C)CC[C@@]2(C(=O)N2CCC[C@H]2CN2CCC(F)(F)CC2)CC1=O
Response line: 100

====

# Cmax values compiled below
# assay comment: Single dose oral pharmacokinetic study
# Assay type: in vivo
# condition parameters: mouse, plasma; Mice oral PK @30 mg/kg
Give the value in ng/mL but do not write ng/mL after it.

Worked cases, answers included:
>>> endpoint_value("CC(C)C1=C2[C@H]3CC[C@@H]4[C@@]5(C)CC[C@H](OC(=O)[C@H]6C[C@@H](C(=O)O)C6(C)C)C(C)(C)[C@@H]5CC[C@@]4(C)[C@]3(C)CC[C@@]2(C(=O)N2CCC[C@H]2CN2CCC(F)(F)C2)CC1=O [Example 6]")
11500
>>> endpoint_value("CC(C)C1=C2[C@H]3CC[C@@H]4[C@@]5(C)CC[C@H](OC(=O)[C@H]6C[C@@H](C(=O)O)C6(C)C)C(C)(C)[C@@H]5CC[C@@]4(C)[C@]3(C)CC[C@@]2(C(=O)N2CCC[C@H]2C(C)(C)O)CC1=O [Example 9]")
10900
>>> endpoint_value("CC(C)C1=C2[C@H]3CC[C@@H]4[C@@]5(C)CC[C@H](OC(=O)[C@H]6C[C@@H](C(=O)O)C6(C)C)C(C)(C)[C@@H]5CC[C@@]4(C)[C@]3(C)CC[C@@]2(C(=O)N2CCC[C@H]2c2ncc(-c3cccnc3)[nH]2)CC1=O [Example 3]")
8530
>>> endpoint_value("CC(C)C1=C2[C@H]3CC[C@@H]4[C@@]5(C)CC[C@H](OC(=O)[C@H]6C[C@@H](C(=O)O)C6(C)C)C(C)(C)[C@@H]5CC[C@@]4(C)[C@]3(C)CC[C@@]2(C(=O)N2CCCC2c2ncc(-c3ccccc3)[nH]2)CC1=O (some centres unmarked) [Example 1]")
8650
>>> endpoint_value("CC(C)C1=C2[C@H]3CC[C@@H]4[C@@]5(C)CC[C@H](OC(=O)[C@H]6C[C@@H](C(=O)O)C6(C)C)C(C)(C)[C@@H]5CC[C@@]4(C)[C@]3(C)CC[C@@]2(C(=O)NC(C)(C)CO)CC1=O [Example 15]")
9080

Prompt line: Determine its reported Cmax: CC(C)C1=C2[C@H]3CC[C@@H]4[C@@]5(C)CC[C@H](OC(=O)[C@H]6C[C@@H](C(=O)O)C6(C)C)C(C)(C)[C@@H]5CC[C@@]4(C)[C@]3(C)CC[C@@]2(C(=O)N(CCN(C)C)Cc2ccc(Cl)cc2)CC1=O [Example 14]
Response line: 9640

Prompt line: Determine its reported Cmax: CC(C)C1=C2[C@H]3CC[C@@H]4[C@@]5(C)CC[C@H](OC(=O)[C@H]6C[C@@H](C(=O)O)C6(C)C)C(C)(C)[C@@H]5CC[C@@]4(C)[C@]3(C)CC[C@@]2(C(=O)N2CCC[C@H]2c2ncc(-c3ccc(F)cc3)[nH]2)CC1=O [Example 2]
Response line: 11900

Prompt line: Determine its reported Cmax: CC(C)C1=C2[C@H]3CC[C@@H]4[C@@]5(C)CC[C@H](OC(=O)[C@H]6C[C@@H](C(=O)O)C6(C)C)C(C)(C)[C@@H]5CC[C@@]4(C)[C@]3(C)CC[C@@]2(C(=O)N2CCC[C@H]2CN2CCC(F)(F)CC2)CC1=O [Example 7]
Response line: 7410
